- assaySystem: BRM (Homo sapiens)
- Construct: made in house; host or cells: High Five insect cells
- Sequence (P51531 whole entry): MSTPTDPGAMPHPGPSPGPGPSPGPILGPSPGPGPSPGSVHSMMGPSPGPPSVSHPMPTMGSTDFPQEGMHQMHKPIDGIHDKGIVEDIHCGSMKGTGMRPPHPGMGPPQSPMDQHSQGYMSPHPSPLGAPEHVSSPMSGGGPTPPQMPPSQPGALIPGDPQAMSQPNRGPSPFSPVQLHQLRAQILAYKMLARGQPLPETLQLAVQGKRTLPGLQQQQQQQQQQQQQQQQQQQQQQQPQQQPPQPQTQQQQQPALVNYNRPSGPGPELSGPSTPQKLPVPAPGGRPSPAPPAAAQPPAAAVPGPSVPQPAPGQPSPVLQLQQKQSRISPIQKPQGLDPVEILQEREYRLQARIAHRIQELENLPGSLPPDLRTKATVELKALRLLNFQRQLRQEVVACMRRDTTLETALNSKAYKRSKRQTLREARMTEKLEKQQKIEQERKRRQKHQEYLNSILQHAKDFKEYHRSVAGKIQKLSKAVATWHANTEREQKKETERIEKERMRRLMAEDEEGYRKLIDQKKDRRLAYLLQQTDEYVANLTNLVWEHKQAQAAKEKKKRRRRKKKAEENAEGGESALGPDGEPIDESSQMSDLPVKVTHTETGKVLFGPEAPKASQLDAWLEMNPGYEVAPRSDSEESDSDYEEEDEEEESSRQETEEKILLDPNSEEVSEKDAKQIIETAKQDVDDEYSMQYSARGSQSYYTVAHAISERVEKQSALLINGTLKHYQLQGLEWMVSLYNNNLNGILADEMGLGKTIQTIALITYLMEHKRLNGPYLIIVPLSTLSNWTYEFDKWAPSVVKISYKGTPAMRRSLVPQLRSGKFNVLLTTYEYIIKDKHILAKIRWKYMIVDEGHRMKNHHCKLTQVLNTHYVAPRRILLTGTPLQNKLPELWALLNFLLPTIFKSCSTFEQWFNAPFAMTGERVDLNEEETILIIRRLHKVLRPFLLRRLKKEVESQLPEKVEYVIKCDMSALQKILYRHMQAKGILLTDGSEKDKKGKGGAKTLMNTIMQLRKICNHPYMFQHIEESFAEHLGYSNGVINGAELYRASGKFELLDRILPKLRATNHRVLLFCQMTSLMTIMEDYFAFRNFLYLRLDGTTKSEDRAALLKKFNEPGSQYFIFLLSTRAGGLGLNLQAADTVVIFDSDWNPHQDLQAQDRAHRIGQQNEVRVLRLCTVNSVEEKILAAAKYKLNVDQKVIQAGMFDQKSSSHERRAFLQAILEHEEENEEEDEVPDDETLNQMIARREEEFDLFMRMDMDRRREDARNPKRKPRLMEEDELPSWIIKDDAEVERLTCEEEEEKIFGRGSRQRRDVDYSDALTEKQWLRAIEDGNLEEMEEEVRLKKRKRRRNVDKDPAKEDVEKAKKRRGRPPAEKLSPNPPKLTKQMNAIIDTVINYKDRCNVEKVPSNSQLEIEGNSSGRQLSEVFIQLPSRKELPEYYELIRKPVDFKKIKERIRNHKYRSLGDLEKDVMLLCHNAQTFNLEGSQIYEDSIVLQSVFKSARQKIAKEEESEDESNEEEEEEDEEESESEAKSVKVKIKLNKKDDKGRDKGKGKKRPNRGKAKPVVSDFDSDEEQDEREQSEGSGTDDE
- assayRemarks: ATPase catalytic activity of BRM, ADP-Glo in vitro biochemical assay
- runConditions: ATPase catalytic activity, 30 nM BRM, 400 μM ATP, read-out: BRM IP50 (μM)*
reportedMetric: IC50

COC[C@H](NC(=O)c1ccn(S(C)(=O)=O)c1)C(=O)Nc1nc(-c2cccc(-c3cnn(C)c3)c2)cs1	> 0.01 µM

Now examine the next entry.
Recall the recorded IC50 for `C[C@H]1CN(c2cccc(-c3csc(NC(=O)CNC(=O)c4ccn(S(C)(=O)=O)c4)n3)c2)C[C@H](C)O1` with BRM (Homo sapiens) and state it.
< 0.01 µM
